Test system: Paramphistomum
PROTOCOL: Anthelmintic activity against Paramphistomum assessed as mortality at 80 ug/ml after 2 hrs relative to control
Assay type: functional
Please go through the items and note down their mortality at 80 µg/mL.
Express your answer in %, writing the number without its unit.

Query string: What does the record list as mortality at 80 µg/mL for O=C(Nc1cc(Cl)cc(Cl)c1O)c1c(O)c(Cl)cc(Cl)c1Cl [OXYCLOZANIDE] ?
Result string: 100

Query string: Report mortality at 80 µg/mL for `COC(=O)Nc1nc2ccc(OCc3nnc(SC)o3)cc2s1` please.
Result string: 20

Query string: mortality at 80 µg/mL lookup needed for `COC(=O)Nc1nc2ccc(OCc3nnc(SCC(=O)c4ccc(Cl)cc4)o3)cc2s1` , thanks.
Result string: 70

Query string: Reported mortality at 80 µg/mL for `COC(=O)Nc1nc2ccc(OCc3nnc(SC(=O)CCl)o3)cc2s1` : what is it?
Result string: 30

Query string: GET /values?readout=mortality at 80 µg/mL&item= `COC(=O)Nc1nc2ccc(OCc3nnc(S)n3-c3ccc(Cl)cc3)cc2s1`
Result string: 20

Query string: // returns reported mortality at 80 µg/mL for input `COC(=O)Nc1nc2ccc(OCc3nnc(SCc4ccccc4)o3)cc2s1`
Result string: 60

Query string: Reported mortality at 80 µg/mL for `COC(=O)Nc1nc2ccc(OCc3nnc(S)n3-c3ccccc3)cc2s1` : what is it?
Result string: 0

Query string: Any idea what mortality at 80 µg/mL was measured for `CCSc1nnc(COc2ccc3nc(NC(=O)OC)sc3c2)o1` ?
Result string: 60

Query string: For the molecule shown here, `COC(=O)Nc1nc2ccc(OCc3nnc(SCC(=O)c4ccc(Br)cc4)o3)cc2s1` , give the reported mortality at 80 µg/mL.
Result string: 100

Query string: Looking for the measured mortality at 80 µg/mL of `C=CCSc1nnc(COc2ccc3nc(NC(=O)OC)sc3c2)o1` , can you help?
Result string: 40
